Below, each entry is listed alongside its reported pIC50.
Molecular target: RIPK1 (Homo sapiens (Human), UniProt Q13546)
Sequence (Q13546 whole entry): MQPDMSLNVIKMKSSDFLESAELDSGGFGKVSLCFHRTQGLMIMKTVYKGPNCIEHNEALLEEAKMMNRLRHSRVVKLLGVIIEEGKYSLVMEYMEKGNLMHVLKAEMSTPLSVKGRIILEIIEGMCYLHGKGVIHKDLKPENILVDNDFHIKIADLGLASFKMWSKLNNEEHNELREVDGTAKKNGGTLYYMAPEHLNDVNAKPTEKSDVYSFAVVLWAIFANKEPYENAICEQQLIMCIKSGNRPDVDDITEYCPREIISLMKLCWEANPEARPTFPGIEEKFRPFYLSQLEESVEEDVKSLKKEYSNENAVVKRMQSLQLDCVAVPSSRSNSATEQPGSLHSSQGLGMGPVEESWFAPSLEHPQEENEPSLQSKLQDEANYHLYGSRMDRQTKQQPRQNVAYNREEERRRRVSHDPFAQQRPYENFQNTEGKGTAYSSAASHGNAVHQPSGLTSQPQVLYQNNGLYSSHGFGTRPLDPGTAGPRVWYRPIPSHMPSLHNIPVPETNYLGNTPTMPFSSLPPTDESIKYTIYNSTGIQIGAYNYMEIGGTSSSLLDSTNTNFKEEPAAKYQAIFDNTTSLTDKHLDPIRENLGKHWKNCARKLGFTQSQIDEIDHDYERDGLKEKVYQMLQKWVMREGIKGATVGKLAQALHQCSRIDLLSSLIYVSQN
Assay: In vitro kinase assay (Eurofins Kinase Profiler), IC50
Assay type: biochemical
Conditions: 0.001-10 μM, read-out: RIPK 1 (IC50)
pIC50: −log10 of the molar value.

Record request: pIC50 value, item C[C@H](NC(=O)c1cn(C)c2ccc(-c3ccc4nc(NC(=O)C5CC5)cn4n3)cc12)c1cccc(F)c1 [Compound 109]
8.00 to 9.00

Record request: pIC50 value, item C[C@H](NC(=O)c1cn(C)c2ccc(-c3ccn4nc(NC(=O)N[C@@H](C)CO)nc4c3)cc12)c1cccc(F)c1 [Compound 165]
7.00 to 8.00

Record request: pIC50 value, item C[C@H](NC(=O)c1c[nH]c2ccc(-c3ccc4nc(NC(=O)C5CCCCC5)sc4c3)cc12)c1cccc(F)c1 [Compound 49]
7.00 to 8.00

Record request: pIC50 value, item C[C@H](NC(=O)c1cn(C)c2ccc(-c3ccnn3C3CCCCO3)cc12)c1cccc(F)c1 (some centres unmarked) [Compound 71]
≤ 6.00

Record request: pIC50 value, item C[C@H](NC(=O)c1c[nH]c2ccc(-c3ccc4nc(NC(=O)C5CCC5)sc4c3)cc12)c1cccc(F)c1 [Compound 47]
7.00 to 8.00

---

Observed IC50 values for UniProt:Q13546 are listed in what follows.

                                   compound  propertymeasured        observed
0  O=C(NCc1cccc(Cl)c1)c1c[nH]c2ccc(-c3ccc4nc(NC(=O)C5CC5)sc4c3)cc12              IC50    10 to 100 nM
1  Cn1cc(C(=O)N[C@H]2CCCc3ccc(F)cc32)c2cc(-c3ccn4nc(NC(=O)C5CC5)nc4c3)ccc21              IC50  100 to 1000 nM
2  [2H]C([2H])([2H])n1cc(C(=O)N[C@H](c2ccc(F)cc2)C2CC2)c2cc(-c3ccn4nc(NC(=O)CN(C)C)nc4c3)ccc21              IC50  100 to 1000 nM
3  O=C(NCc1ccc2[nH]ccc2c1)c1c[nH]c2ccc(-c3ccc4nc(NC(=O)C5CC5)sc4c3)cc12              IC50       ≥ 1000 nM
4  CC(C)Cn1cc(C(=O)N[C@@H](C)c2cccc(F)c2)c2cc(-c3ccn4nc(NC(=O)C(C)C)nc4c3)ccc21              IC50  100 to 1000 nM
5  C[C@H](NC(=O)c1c[nH]c2ccc(-c3ccc4nc(NC(=O)C5CC5)sc4c3)cc12)c1cccc(F)c1              IC50    10 to 100 nM

API: value(readout= IC50, system= UniProt:Q13546, query= Cn1cc(C(=O)N2CCC[C@H]2c2cc(F)cc(F)c2)c2cc(-c3ccn4nc(NC(=O)C5CC5)nc4c3)ccc21 )
< 1 nM

API: value(readout= IC50, system= UniProt:Q13546, query= C[C@H](NC(=O)c1cn(C)c2ccc(-c3ccn4nc(NC(=O)C5CC5)cc4n3)cc12)c1cccc(F)c1 )
1 to 10 nM

API: value(readout= IC50, system= UniProt:Q13546, query= O=C(NCc1ccc(N2CCOCC2)cc1)c1c[nH]c2ccc(-c3ccc4nc(NC(=O)C5CC5)sc4c3)cc12 )
≥ 1000 nM

API: value(readout= IC50, system= UniProt:Q13546, query= Cn1cc(C(=O)NCc2ccc(F)cc2)c2cc(-c3ccc4nc(NC(=O)C5CC5)sc4c3)ccc21 )
100 to 1000 nM

---

Below, each entry is listed alongside its reported pEC50.
System: HT-29 cells
Test: Protection against programmed necrosis of HT-29 cells (TNF α/Smac mimetic/Z-VAD-FMK, CCK8)
Format: cell-based
Conditions: Homo sapiens, TSZ-induced, FIG. 3, read-out: EC50 value, programmed necrosis model of HT-29
Bear in mind: pEC50 is minus log10 of a mol/L concentration; give just that figure.

Worked examples follow.
In [3]: df
Out[3]:
                          structureassmiles  propertymeasured  observed
0  C[C@H](NC(=O)c1cn(C)c2ccc(-c3ccn4nc(NC(=O)C5CC5)nc4c3)cc12)c1cccc(F)c1             pEC50     10.92
1  C[C@H](NC(=O)c1c[nH]c2ccc(-c3ccc4nc(NC(=O)C5CC5)sc4c3)cc12)c1cccc(F)c1             pEC50      9.93

Please turn your attention to the following entry.
Record request: pEC50 value, item C[C@H](NC(=O)c1cn(C)c2ccc(-c3ccc4nc(NC(=O)C5CC5)sc4c3)cc12)c1cccc(F)c1
10.15

---

Experiment: In vivo pharmacokinetic study in rats
Details: rat, plasma, oral, 10 mg/kg
Where Cmax equals or exceeds 2000 ng/mL, the correct label is condition met; where it does not, the label is condition not met.

In [3]: df
Out[3]:
                                   molecule         grouplabel
0  Cn1cc(C(=O)N2CCCC2c2cccc(F)c2)c2cc(-c3ccn4nc(NC(=O)C5CC5)nc4c3)ccc21 (stereo not drawn)      condition met
1  Cn1cc(C(=O)N2CCC[C@H]2c2ccc(F)cc2)c2cc(-c3ccn4nc(NC(=O)C5CC5)nc4c3)ccc21      condition met
2  C[C@H](NC(=O)c1cn(C)c2ccc(-c3ccn4nc(NC(=O)C5CC5)nc4c3)cc12)c1cccc(F)c1  condition not met
3  Cn1cc(C(=O)N2CCC[C@H]2c2ccc(F)c(F)c2)c2cc(-c3ccn4nc(NC(=O)C5CC5)nc4c3)ccc21      condition met
4  C[C@H](NC(=O)c1c[nH]c2ccc(-c3ccc4nc(NC(=O)C5CC5)sc4c3)cc12)c1cccc(F)c1  condition not met

As a next step, examine the molecule that follows.
Could you verify whether the entry Cn1cc(C(=O)N2CCC[C@H]2c2cccc(Cl)c2)c2cc(-c3ccn4nc(NC(=O)C5CC5)nc4c3)ccc21 shows Cmax of no less than 2000 ng/mL?
condition met

---

Below, each entry is listed alongside its reported half-life.
Assay: In vivo pharmacokinetic study in rats
Conditions: rat, plasma, oral, 10 mg/kg
Write down the numeric answer in h and omit the unit.

Worked examples follow.
In [3]: df
Out[3]:
                                   molecule  measureunit  observed
0  C[C@H](NC(=O)c1cn(C)c2ccc(-c3ccn4nc(NC(=O)C5CC5)nc4c3)cc12)c1cccc(F)c1 [Compound 94]            h      7.02
1  Cn1cc(C(=O)N2CCC[C@H]2c2cccc(Cl)c2)c2cc(-c3ccn4nc(NC(=O)C5CC5)nc4c3)ccc21 [Compound 193]            h      2.74
2  C[C@H](NC(=O)c1c[nH]c2ccc(-c3ccc4nc(NC(=O)C5CC5)sc4c3)cc12)c1cccc(F)c1 [Compound 34]            h      2.06
3  Cn1cc(C(=O)N2CCC[C@H]2c2ccc(F)c(F)c2)c2cc(-c3ccn4nc(NC(=O)C5CC5)nc4c3)ccc21 [Compound 191]            h      4.67
4  Cn1cc(C(=O)N2CCCC2c2cccc(F)c2)c2cc(-c3ccn4nc(NC(=O)C5CC5)nc4c3)ccc21 (stereo not drawn) [Compound 168]            h       3.1

Record request: half-life value, item Cn1cc(C(=O)N2CCC[C@H]2c2ccc(F)cc2)c2cc(-c3ccn4nc(NC(=O)C5CC5)nc4c3)ccc21 [Compound 174]
1.99

---

Target: RIPK1 (Homo sapiens (Human), UniProt Q13546)
Below, each entry is listed alongside its reported IC50.

Worked examples follow.
>>> df
                                   compound  propertymeasured      observed
0  C[C@H](NC(=O)c1cn(C)c2ccc(-c3ccn4nc(NC(=O)C5CC(F)(F)C5)nc4c3)cc12)c1cccc(F)c1 [Compound 146]              IC50    1 to 10 nM
1  C[C@H](NC(=O)c1cn(C)c2ccc(-c3ccn4nc(NC(=O)[C@H]5C[C@H]5F)nc4c3)cc12)c1cccc(F)c1 [Compound 143]              IC50  10 to 100 nM
2  CC(C)Cn1cc(C(=O)N[C@@H](C)c2cccc(F)c2)c2cc(-c3ccc4c(NC(=O)C5CC5)n[nH]c4c3)ccc21 [Compound 115]              IC50    1 to 10 nM
3  Cc1noc(C)c1-c1cnc2[nH]cc(C(=O)N[C@@H](C)c3cccc(F)c3)c2c1 [Compound 69]              IC50     ≥ 1000 nM
4  O=C(NCc1cccs1)c1c[nH]c2ccc(-c3ccc4nc(NC(=O)C5CC5)sc4c3)cc12 [Compound 18]              IC50  10 to 100 nM

Record request: IC50 value, item C[C@H](NC(=O)c1cn(C)c2ccc(-c3ccn4nc(NC(=O)C5CC5)nc4c3)cc12)c1cccc(F)c1 [Compound 94]
1 to 10 nM

Record request: IC50 value, item COc1ccc(CNC(=O)c2c[nH]c3ccc(-c4ccc5nc(NC(=O)C6CC6)sc5c4)cc23)cc1 [Compound 1]
10 to 100 nM

Record request: IC50 value, item Cc1ccc(CNC(=O)c2c[nH]c3ccc(-c4ccc5nc(NC(=O)C6CC6)sc5c4)cc23)cc1 [Compound 13]
10 to 100 nM

Record request: IC50 value, item CC(C)n1cc(C(=O)NCc2cc(F)ccc2F)c2cc(-c3ccc4nc(NC(=O)C5CC5)sc4c3)ccc21 [Compound 56]
10 to 100 nM

Record request: IC50 value, item C[C@H](NC(=O)c1cn(C)c2ccc(-c3ccn4nc(NC(=O)C5CCC(F)(F)CC5)nc4c3)cc12)c1cccc(F)c1 [Compound 147]
10 to 100 nM

Record request: IC50 value, item [2H]C([2H])([2H])n1cc(C(=O)N[C@H](c2ccc(F)cc2)C2CC2)c2cc(-c3ccn4nc(NC(=O)C5CC5)nc4c3)ccc21 [Compound 206]
1 to 10 nM

Record request: IC50 value, item O=C(NCc1ccc(F)cc1)c1c[nH]c2ccc(-c3ccc4nc(NC(=O)C5CC5)sc4c3)cc12 [Compound 6]
100 to 1000 nM

Record request: IC50 value, item CCCn1cc(C(=O)NCc2cc(F)ccc2F)c2cc(-c3ccc4nc(NC(=O)C5CC5)sc4c3)ccc21 [Compound 57]
100 to 1000 nM

Record request: IC50 value, item CCCn1cc(C(=O)N[C@@H](C)c2cccc(F)c2)c2cc(-c3ccn4nc(NC(=O)C5CC5)nc4c3)ccc21 [Compound 151]
1 to 10 nM

Record request: IC50 value, item COc1ccc([C@@H](C)NC(=O)c2c[nH]c3ccc(-c4ccc5nc(NC(=O)C6CC6)sc5c4)cc23)cc1 [Compound 32]
10 to 100 nM

Record request: IC50 value, item C[C@H](NC(=O)c1cn(C)c2ccc(-c3ccc4nc(NC(=O)C5CC5)sc4c3)cc12)c1cccc(F)c1 [Compound 46]
10 to 100 nM

The reported measurements were obtained from patent US20230365546A1.
